Tested on: IGROV1
experiment: NCI SRB assay
Assay type: cell-based, human
condition: IGROV1, 5-dose; read-out: LC50 (the source's name)
recordedEndpoint: CC50

Problem: Item Cc1ccc(-c2nc(Nc3ccccc3C(=O)O)c3ccccc3n2)cc1 has what recorded CC50?
Result: < 100 µM

====

Tested on: SF-539
experiment: NCI SRB assay
Type: cell-based, human
condition: SF-539, 10 μM
Label key: Met means GI% under 40%; Not met means GI% of 40% or more.

Problem: Record Cc1ccc(-c2nc(Nc3ccccc3C(=O)O)c3ccccc3n2)cc1 [6b] : is its GI% strictly below 40%?
Result: Not met

Problem: For this compound, is GI% lower than 40%? Cc1ccc(-c2nc(Nc3ccc(C(=O)O)cc3)c3ccccc3n2)cc1 [8b]
Result: Met

Problem: # strict comparison: is reported GI% < 40%? input = COc1ccc(-c2nc(Nc3ccccc3C(=O)O)c3ccccc3n2)cc1 [6c]
Result: Met

Problem: Input Cc1ccc(-c2nc(Nc3cccc(C(=O)O)c3)c3ccccc3n2)cc1 [7b] ; condition: GI% strictly below 40%. Does it hold?
Result: Met

Problem: Determine if Cc1cccc(-c2nc(Nc3ccccc3C(=O)O)c3ccccc3n2)c1 [6a] shows GI% strictly lower than 40%.
Result: Not met

====

Tested on: MCF7
experiment: NCI SRB assay
Assay type: cell-based, human
condition: MCF7, 10 μM
recordedEndpoint: GI%

Problem: Given COc1ccc(-c2nc(Nc3ccccc3C(=O)O)c3ccccc3n2)cc1 [6c] , state its recorded GI%.
Result: 49%

Problem: State the recorded GI% for this entry: Cc1cccc(-c2nc(Nc3ccccc3C(=O)O)c3ccccc3n2)c1 [6a]
Result: 76%

Problem: Any idea what GI% was measured for Cc1ccc(-c2nc(Nc3ccc(C(=O)O)cc3)c3ccccc3n2)cc1 [8b] ?
Result: 37%

Problem: Can you share its GI%? I mean this compound: Cc1ccc(-c2nc(Nc3ccccc3C(=O)O)c3ccccc3n2)cc1 [6b]
Result: 92%

====

System: HT29
experiment: NCI SRB assay
Type: cell-based, human
condition: HT29, 5-dose
recordedEndpoint: LC50 (50% lethal concentration)

Problem: Can you look up the measured LC50 (50% lethal concentration) of Cc1ccc(-c2nc(Nc3ccccc3C(=O)O)c3ccccc3n2)cc1 for me?
Result: < 100 µM

====

System: MDA-MB-435
experiment: NCI SRB assay
Type: cell-based
condition: MDA-MB-435, 5-dose; read-out: LC50 (the source's name)
recordedEndpoint: CC50

Problem: For MDA-MB-435, provide CC50 of Cc1ccc(-c2nc(Nc3ccccc3C(=O)O)c3ccccc3n2)cc1 [6b] please.
Result: < 100 µM

====

System: CCRF-CEM
experiment: NCI SRB assay
Format: cell-based, human
condition: 5-dose, read-out: LC50 (the source's name)
recordedEndpoint: CC50

Problem: # value lookup — system CCRF-CEM, readout CC50, item Cc1ccc(-c2nc(Nc3ccccc3C(=O)O)c3ccccc3n2)cc1 [6b]
Result: < 100 µM

====

System: 786-0
experiment: NCI SRB assay
Type: cell-based, human
condition: 786-0, 5-dose; read-out: LC50 (the source's name)
recordedEndpoint: CC50

Problem: Return reported CC50; argument: Cc1ccc(-c2nc(Nc3ccccc3C(=O)O)c3ccccc3n2)cc1
Result: < 100 µM

====

Tested on: UO-31
experiment: NCI SRB assay
Assay type: cell-based, human
condition: UO-31, 1.00E-5 Molar
Rule: Growth Percent of 40% or more gives Satisfied; anything lower gives Not satisfied.

Problem: Is reported Growth Percent greater than or equal to 40% here: Cc1ccc(-c2nc(Nc3ccccc3C(=O)O)c3ccccc3n2)cc1
Result: Not satisfied

Problem: # bool: Growth Percent of Cc1cccc(-c2nc(Nc3ccccc3C(=O)O)c3ccccc3n2)c1 >= 40%
Result: Not satisfied

Problem: Decide: is the reported value of Growth Percent for Cc1ccc(-c2nc(Nc3ccc(C(=O)O)cc3)c3ccccc3n2)cc1 equal to or greater than 40%?
Result: Satisfied

Problem: Test whether the compound Cc1ccc(-c2nc(Nc3cccc(C(=O)O)c3)c3ccccc3n2)cc1 records Growth Percent of 40% or higher.
Result: Satisfied

Problem: Is reported Growth Percent greater than or equal to 40% here: Cc1cccc(-c2nc(Nc3ccc(C(=O)O)cc3)c3ccccc3n2)c1
Result: Satisfied

====

System: M14
experiment: NCI SRB assay
Format: cell-based, human
condition: M14, 5-dose; read-out: LC50 (the source's name)
recordedEndpoint: CC50

Problem: So what's the measured CC50 for this one? Cc1ccc(-c2nc(Nc3ccccc3C(=O)O)c3ccccc3n2)cc1
Result: < 100 µM

====

System: UO-31
experiment: NCI SRB assay
Type: cell-based, human
condition: UO-31, 10 μM
Where GI% equals or exceeds 70%, the correct label is rule met; where it does not, the label is rule not met.

Problem: Decide: is the reported value of GI% for Cc1ccc(-c2nc(Nc3cccc(C(=O)O)c3)c3ccccc3n2)cc1 [7b] equal to or greater than 70%?
Result: rule not met

Problem: Would you say Cc1ccc(-c2nc(Nc3ccccc3C(=O)O)c3ccccc3n2)cc1 [6b] shows GI% at minimum 70%?
Result: rule met

Problem: Entry Cc1ccc(-c2nc(Nc3ccc(C(=O)O)cc3)c3ccccc3n2)cc1 [8b] : is its GI% no less than 70%?
Result: rule not met

Problem: GI% >= 70% for Cc1cccc(-c2nc(Nc3ccc(C(=O)O)cc3)c3ccccc3n2)c1 [8a] ?
Result: rule not met

====

System: NCI-H23
experiment: NCI SRB assay
Assay type: cell-based, human
condition: NCI-H23, 5-dose
recordedEndpoint: LC50

Problem: Any idea what its LC50 is? The molecule is Cc1ccc(-c2nc(Nc3ccccc3C(=O)O)c3ccccc3n2)cc1 [6b]
Result: < 100 µM

====

Tested on: LOX IMVI
experiment: NCI SRB assay
Format: cell-based, human
condition: 10 μM
recordedEndpoint: GI% (%)
Your answer should be a plain number; it is taken to be in %.

Problem: Given the entry COc1ccc(-c2nc(Nc3ccccc3C(=O)O)c3ccccc3n2)cc1 [6c] , what GI% was observed with LOX IMVI?
Result: 50

Problem: # query: GI% | item Cc1cccc(-c2nc(Nc3ccccc3C(=O)O)c3ccccc3n2)c1 [6a] | system: LOX IMVI
Result: 64

Problem: Request: GI%, test system LOX IMVI, entry Cc1ccc(-c2nc(Nc3ccccc3C(=O)O)c3ccccc3n2)cc1 [6b]
Result: 91

Problem: API: value(readout=GI%, system=LOX IMVI) for record Cc1ccc(-c2nc(Nc3ccc(C(=O)O)cc3)c3ccccc3n2)cc1 [8b]
Result: 43

Problem: Field: GI% (LOX IMVI). Entry: Cc1cccc(-c2nc(Nc3ccc(C(=O)O)cc3)c3ccccc3n2)c1 [8a]
Result: 29

====

Give measured Ki for each item. Keep answers brief.

Problem: For the record Cc1cccc(-c2nc(Nc3ccc(C(=O)O)cc3)c3ccccc3n2)c1 , what value of Ki is listed for hCA I (Homo sapiens, UniProt P00915)?
Result: 87.7 µM

Problem: Provide value of Ki for this record tested with hCA I (Homo sapiens, UniProt P00915): Cc1cccc(-c2nc(Nc3ccccc3C(=O)O)c3ccccc3n2)c1
Sequence (P00915 whole entry): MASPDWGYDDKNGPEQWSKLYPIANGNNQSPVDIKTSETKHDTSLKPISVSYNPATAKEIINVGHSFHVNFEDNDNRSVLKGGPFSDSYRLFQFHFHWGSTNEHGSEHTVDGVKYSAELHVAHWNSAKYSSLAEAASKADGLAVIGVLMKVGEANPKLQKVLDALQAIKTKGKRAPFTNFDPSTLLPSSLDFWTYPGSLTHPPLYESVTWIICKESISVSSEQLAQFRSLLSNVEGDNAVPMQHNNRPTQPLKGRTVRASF
Result: > 100 µM

Problem: So what Ki did Cc1cccc(-c2nc(Nc3cccc(C(=O)O)c3)c3ccccc3n2)c1 get with hCA I (Homo sapiens, UniProt P00915)?
Result: > 100 µM

Problem: Please tell me: Ki of Cc1ccc(-c2nc(Nc3cccc(C(=O)O)c3)c3ccccc3n2)cc1 , system hCA I (Homo sapiens, UniProt P00915)?
Result: > 100 µM

Problem: Short answer please: Ki, hCA I (Homo sapiens, UniProt P00915), entry Cc1ccc(-c2nc(Nc3ccccc3C(=O)O)c3ccccc3n2)cc1
Result: > 100 µM

Problem: Identify the measured Ki of COc1ccc(-c2nc(Nc3ccccc3C(=O)O)c3ccccc3n2)cc1 for hCA I (Homo sapiens, UniProt P00915).
Result: > 100 µM

Problem: Can you look up Ki on hCA I (Homo sapiens, UniProt P00915) for Cc1ccc(-c2nc(Nc3ccc(C(=O)O)cc3)c3ccccc3n2)cc1 ?
Result: 73.2 µM

====

System: U251
experiment: NCI SRB assay
Assay type: cell-based, human
condition: U251, 1.00E-5 Molar
Label Fulfilled when Growth Percent >= 70%; otherwise Not fulfilled.

Problem: State whether the measured Growth Percent reaches 70%, counting equality as reaching it, for Cc1cccc(-c2nc(Nc3ccc(C(=O)O)cc3)c3ccccc3n2)c1
Result: Fulfilled

Problem: Confirm if Growth Percent reported for the molecule Cc1cccc(-c2nc(Nc3ccccc3C(=O)O)c3ccccc3n2)c1 is 70% or above.
Result: Not fulfilled

Problem: Confirm if Growth Percent reported for the molecule COc1ccc(-c2nc(Nc3ccccc3C(=O)O)c3ccccc3n2)cc1 is 70% or above.
Result: Not fulfilled

Problem: Check this molecule for Growth Percent at or above 70%: Cc1ccc(-c2nc(Nc3ccccc3C(=O)O)c3ccccc3n2)cc1
Result: Not fulfilled

Problem: I'd appreciate it if you could say whether Cc1ccc(-c2nc(Nc3cccc(C(=O)O)c3)c3ccccc3n2)cc1 has Growth Percent at least equal to 70%.
Result: Fulfilled

Problem: Say whether Cc1ccc(-c2nc(Nc3ccc(C(=O)O)cc3)c3ccccc3n2)cc1 shows Growth Percent of 70% or more.
Result: Fulfilled
